tgt: T1, human EpCAM (epithelial cell adhesion/activating molecule) (human, UniProt P16422 24-314)
T1 sequence: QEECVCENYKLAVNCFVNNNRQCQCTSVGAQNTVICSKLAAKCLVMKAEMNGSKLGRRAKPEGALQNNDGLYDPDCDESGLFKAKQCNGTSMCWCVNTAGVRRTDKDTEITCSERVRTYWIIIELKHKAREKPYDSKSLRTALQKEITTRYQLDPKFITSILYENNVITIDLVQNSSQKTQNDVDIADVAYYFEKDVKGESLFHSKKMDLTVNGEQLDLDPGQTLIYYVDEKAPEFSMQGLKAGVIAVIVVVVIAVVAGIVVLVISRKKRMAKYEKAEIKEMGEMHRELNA
protocol: cell-based or functional assay
quantity.name: % Annexin V/PI-positive cells, FaDu, 3.0 µg/ml mAb
Report field: quantity (unit follows the number).

Worked examples, 2 binders total:
binder | observed.measurement
murine monoclonal antibody 12H8 (antibody, mouse IgG2a, V domains shown, Mouse IgG2a, kappa, from hybridoma; also called m342-12H8.3; m12H8) VH: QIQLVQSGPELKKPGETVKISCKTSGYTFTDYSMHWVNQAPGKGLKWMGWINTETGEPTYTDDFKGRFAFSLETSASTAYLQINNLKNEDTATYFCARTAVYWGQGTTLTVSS VL: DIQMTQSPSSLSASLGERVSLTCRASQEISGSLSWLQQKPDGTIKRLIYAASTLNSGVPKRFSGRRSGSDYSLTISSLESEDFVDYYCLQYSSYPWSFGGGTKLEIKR | 43%
murine monoclonal antibody 4D2 (antibody, mouse IgG1, V domains shown, Mouse IgG1, kappa, from hybridoma; also called m338-4D2.20) VH: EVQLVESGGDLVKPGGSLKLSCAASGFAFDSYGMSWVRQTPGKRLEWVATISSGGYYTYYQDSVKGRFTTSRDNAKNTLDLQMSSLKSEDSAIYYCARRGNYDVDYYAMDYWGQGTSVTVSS VL: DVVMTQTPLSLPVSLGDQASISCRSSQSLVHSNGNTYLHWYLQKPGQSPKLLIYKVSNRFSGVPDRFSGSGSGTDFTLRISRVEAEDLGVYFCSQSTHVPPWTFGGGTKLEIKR | 43%

Q: Name the recorded % Annexin V/PI-positive cells, FaDu, 3.0 µg/ml mAb of the item murine monoclonal antibody 2D11 (antibody, mouse IgG1, V domains shown, Mouse IgG1, kappa, from hybridoma; also called m322-2D11.19) VH: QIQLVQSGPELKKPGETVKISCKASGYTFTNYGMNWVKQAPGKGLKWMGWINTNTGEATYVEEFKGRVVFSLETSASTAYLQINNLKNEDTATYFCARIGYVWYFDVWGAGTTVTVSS VL: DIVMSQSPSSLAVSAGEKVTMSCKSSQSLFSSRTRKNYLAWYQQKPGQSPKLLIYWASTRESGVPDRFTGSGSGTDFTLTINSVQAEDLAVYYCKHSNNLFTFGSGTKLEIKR in your answer.
Ans: 45%

The measurements presented in this section are drawn from patent US20110165161A1.
